test_summary: EDTA challenge of 64Cu-radiolabeled complexes of chelators A-F
Type: physicochemical
experimental_setup: 64Cu complex, EDTA 100-fold molar excess, 37° C., pH 5.5, ITLC, 24 h
Below: a set of entries, each annotated with reported Bound complex (%).
Write the answer as a number in %, unit excluded.

I have this compound here, O=C(O)CN1CCN(CC(=O)O)CCN(C(CCc2ccc([N+](=O)[O-])cc2)C(=O)O)CC1 (stereo not drawn) [Chelator A, reference compound] , and I need its recorded Bound complex (%).
94.9

Quick one: Bound complex (%) for O=C(O)CN1CCN(CCCc2ccc([N+](=O)[O-])cc2)CCN(CC(=O)O)CC1 [Chelator B] ?
19.4

May I ask what Bound complex (%) has been recorded for O=C(O)CN1CCN(CC(=O)O)CCN(CC(O)CCc2ccc([N+](=O)[O-])cc2)CC1 (stereo not drawn) [Chelator D] ?
55.0

Others:
Report Bound complex (%) for O=C(O)CN1CCN(CC(=O)O)CCN(CC(=O)CCc2ccc([N+](=O)[O-])cc2)CC1 [Chelator C] please.
39.0

Quick check: Bound complex (%) of O=C(O)CN1CCN(CC(=O)O)CCN(Cc2cccs2)CC1 [Chelator F] ?
53.4

Reported Bound complex (%) for O=C(O)CN1CCN(CC(=O)O)CCN(Cc2ccccn2)CC1 [Chelator E] : what is it?
94.3

----------
test_summary: EDTA challenge of 64Cu-radiolabeled complexes of chelators A-F
Type: physicochemical
experimental_setup: 64Cu complex, EDTA 100-fold molar excess, 37° C., pH 5.5, ITLC, 1 h
parameter_measured: Bound complex (%)
Response body: numeric value in %, unit text excluded.

Examples with their reported Bound complex (%) follow.
Any idea what Bound complex (%) was measured for O=C(O)CN1CCN(CC(=O)O)CCN(CC(O)CCc2ccc([N+](=O)[O-])cc2)CC1 (stereo not drawn) [Chelator D] ?
86.8

Find the recorded Bound complex (%) belonging to O=C(O)CN1CCN(CC(=O)O)CCN(C(CCc2ccc([N+](=O)[O-])cc2)C(=O)O)CC1 (stereo not drawn) [Chelator A, reference compound] and report it.
98.6

# input compound: O=C(O)CN1CCN(CC(=O)O)CCN(Cc2cccs2)CC1 [Chelator F] ; wanted: its Bound complex (%)
95.7

Quick one: Bound complex (%) for O=C(O)CN1CCN(CC(=O)O)CCN(Cc2ccccn2)CC1 [Chelator E] ?
98.2

Which Bound complex (%) value belongs to O=C(O)CN1CCN(CCCc2ccc([N+](=O)[O-])cc2)CCN(CC(=O)O)CC1 [Chelator B] ?
90.4

Further cases:
State the recorded Bound complex (%) for this entry: O=C(O)CN1CCN(CC(=O)O)CCN(CC(=O)CCc2ccc([N+](=O)[O-])cc2)CC1 [Chelator C]
50.4

----------
test_summary: EDTA challenge of 64Cu-radiolabeled complexes of chelators A-F
Format: physicochemical
experimental_setup: 64Cu complex, EDTA 100-fold molar excess, 37° C., pH 5.5, ITLC, 4 h
parameter_measured: Bound complex (%)
Hi! Could you send only the number? It should be in %, unit omitted.

Requested read-out: Bound complex (%). Entry: O=C(O)CN1CCN(CCCc2ccc([N+](=O)[O-])cc2)CCN(CC(=O)O)CC1 [Chelator B]
69.2

# lookup: Bound complex (%) of O=C(O)CN1CCN(CC(=O)O)CCN(CC(O)CCc2ccc([N+](=O)[O-])cc2)CC1 (stereo not drawn) [Chelator D]
79.1

Entry O=C(O)CN1CCN(CC(=O)O)CCN(Cc2ccccn2)CC1 [Chelator E] has what Bound complex (%)?
92.6

Give the measured Bound complex (%) of O=C(O)CN1CCN(CC(=O)O)CCN(C(CCc2ccc([N+](=O)[O-])cc2)C(=O)O)CC1 (stereo not drawn) [Chelator A, reference compound] .
96.8

Which Bound complex (%) value is on record for O=C(O)CN1CCN(CC(=O)O)CCN(Cc2cccs2)CC1 [Chelator F] ?
87.5

Reported Bound complex (%), compound O=C(O)CN1CCN(CC(=O)O)CCN(CC(=O)CCc2ccc([N+](=O)[O-])cc2)CC1 [Chelator C] : ____
45.8

----------
test_summary: EDTA challenge of 64Cu-radiolabeled complexes of chelators A-F
Type: physicochemical
experimental_setup: 64Cu complex, EDTA 100-fold molar excess, 37° C., pH 5.5, ITLC, 0 h
parameter_measured: Bound complex (%)
State just the number; it will be interpreted in %.

Any idea what its Bound complex (%) is? The molecule is O=C(O)CN1CCN(CC(=O)O)CCN(Cc2cccs2)CC1 [Chelator F]
100

Returns the measured Bound complex (%) for the input molecule. Input: O=C(O)CN1CCN(CC(=O)O)CCN(CC(O)CCc2ccc([N+](=O)[O-])cc2)CC1 (stereo not drawn) [Chelator D]
99.5

Requested field: Bound complex (%). Item: O=C(O)CN1CCN(CC(=O)O)CCN(C(CCc2ccc([N+](=O)[O-])cc2)C(=O)O)CC1 (stereo not drawn) [Chelator A, reference compound]
99.9

Consider the molecule shown here: O=C(O)CN1CCN(CCCc2ccc([N+](=O)[O-])cc2)CCN(CC(=O)O)CC1 [Chelator B] What is its recorded Bound complex (%)?
99.9

What does the data say about its Bound complex (%)? Entry: O=C(O)CN1CCN(CC(=O)O)CCN(CC(=O)CCc2ccc([N+](=O)[O-])cc2)CC1 [Chelator C]
97.7

Query molecule follows.
Please look up its Bound complex (%): O=C(O)CN1CCN(CC(=O)O)CCN(Cc2ccccn2)CC1 [Chelator E]
99.7

----------
test_summary: EDTA challenge of 64Cu-radiolabeled complexes of chelators A-F
Type: physicochemical
experimental_setup: 64Cu complex, EDTA 100-fold molar excess, 37° C., pH 5.5, ITLC, 19 h
Bound complex (%) for assorted compounds
Reply numerically in %, unit not repeated.

Examples with their reported Bound complex (%) follow.
Entry "O=C(O)CN1CCN(CC(=O)O)CCN(CC(=O)CCc2ccc([N+](=O)[O-])cc2)CC1" : reported Bound complex (%) = ?
41.0

Would you kindly share the measured Bound complex (%) for "O=C(O)CN1CCN(CCCc2ccc([N+](=O)[O-])cc2)CCN(CC(=O)O)CC1" ?
22.9

For the compound shown here, O=C(O)CN1CCN(CC(=O)O)CCN(CC(O)CCc2ccc([N+](=O)[O-])cc2)CC1 (stereo not drawn) , give the reported Bound complex (%).
59.3

Find the recorded Bound complex (%) belonging to O=C(O)CN1CCN(CC(=O)O)CCN(C(CCc2ccc([N+](=O)[O-])cc2)C(=O)O)CC1 (stereo not drawn) [Chelator A, reference compound] and report it.
95.3

Given the compound "O=C(O)CN1CCN(CC(=O)O)CCN(Cc2cccs2)CC1" , what is its reported Bound complex (%)?
59.5

***
Which value of Bound complex (%) has been reported for "O=C(O)CN1CCN(CC(=O)O)CCN(Cc2ccccn2)CC1" in the records?
93.6

----------
test_summary: EDTA challenge of 64Cu-radiolabeled complexes of chelators A-F
Assay type: physicochemical
experimental_setup: 64Cu complex, EDTA 100-fold molar excess, 37° C., pH 5.5, radio-HPLC, 25 h
Experimental: ^64Cu-radiolabeled complexes were further evaluated for complex stability based on EDTA challenge. ^64Cu-radiolabeled complexes were freshly prepared and treated with a solution of EDTA at a 100-fold molar excess, and the resulting solution (pH 5.5) was incubated at 37° C. for 24 h. […] Dissociation of the activity from the ^64Cu-radiolabeled chelators was also measured using radio-HPLC at 25 h time point (FIG. 5). […]
Bound complex (%) values for the compounds below.
Give just the number in %; leave the unit off.

// below: answered compounds
Query (compound): "O=C(O)CN1CCN(CC(=O)O)CCN(CC(=O)CCc2ccc([N+](=O)[O-])cc2)CC1" ; field requested: Bound complex (%)
21.7

Which Bound complex (%) is listed for O=C(O)CN1CCN(CC(=O)O)CCN(C(CCc2ccc([N+](=O)[O-])cc2)C(=O)O)CC1 (stereo not drawn) [Chelator A, reference compound] ?
90.3

Field request: Bound complex (%) | item: "O=C(O)CN1CCN(CC(=O)O)CCN(Cc2cccs2)CC1"
42.3

Consider the compound "O=C(O)CN1CCN(CC(=O)O)CCN(Cc2ccccn2)CC1" and give its measured Bound complex (%).
93.1

So what's the measured Bound complex (%) for this one? "O=C(O)CN1CCN(CCCc2ccc([N+](=O)[O-])cc2)CCN(CC(=O)O)CC1"
11.9

--- query ---
Would you mind telling me what Bound complex (%) value was observed for O=C(O)CN1CCN(CC(=O)O)CCN(CC(O)CCc2ccc([N+](=O)[O-])cc2)CC1 (stereo not drawn) ?
41.0
